Reference for the values: paper PMC10384408

Examples of compounds with documented early apoptotic cells [%] AV+ / PI- follow.
tested on: MCF-7 cells; test: Annexin V-FITC/PI apoptosis assay, MCF-7; settings: MCF-7, 24 h, 200 µM
Kindly format the answer as number then unit.

In the examples that follow, each entry is paired with its recorded early apoptotic cells [%] AV+ / PI-.
>  <compound>
CCc1occc(=S)c1[O-].F[P-](F)(F)(F)(F)F.[W+4].c1cc[cH-]c1.c1cc[cH-]c1 [Compound 10]

>  <early apoptotic cells [%] AV+ / PI->
5.5 ± 3.2%

$$$$
>  <compound>
Cc1cc(=O)c([O-])co1.F[P-](F)(F)(F)(F)F.[W+4].c1cc[cH-]c1.c1cc[cH-]c1 [Compound 7]

>  <early apoptotic cells [%] AV+ / PI->
1.3 ± 0.4%

$$$$

Now examine the next entry.
-- ask Note early apoptotic cells [%] AV+ / PI- for the compound shown: Cc1cc(=S)c([O-])co1.F[P-](F)(F)(F)(F)F.[W+4].c1cc[cH-]c1.c1cc[cH-]c1 [Compound 8]
-- reply 1.2 ± 0.3%
